Test system: Quadruplex DNA
measurement_protocol: Stabilization of human FAM-5'-d(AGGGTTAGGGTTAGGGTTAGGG)-3'-BHQ1 telomeric G4 quadruplex DNA assessed as binding constant at 1 uM by FRET assay
Type: nucleic-acid assay
quantity_measured: Kb (×10⁶ /M)

Answered cases to consult:
N=C(N)NCCNC(=O)c1cc2c(NCCCCCN)c3c(c(NCCCCCN)c2o1)C(=O)c1ccccc1C3=O; 22
N=C(N)NCCCNC(=O)c1cc2c(NCCNC(=N)N)c3c(c(NCCNC(=N)N)c2s1)C(=O)c1ccccc1C3=O; 40
N=C(N)NCCCNc1c2c(c(NCCCNC(=N)N)c3sc(C(=O)NCCNC(=N)N)cc13)C(=O)c1ccccc1C2=O; 44
N=C(N)NCCNC(=O)c1cc2c(NCCNC(=N)N)c3c(c(NCCNC(=N)N)c2s1)C(=O)c1ccccc1C3=O; 33
N=C(N)NCCNC(=O)c1cc2c(NCCNC(=N)N)c3c(c(NCCNC(=N)N)c2o1)C(=O)c1ccccc1C3=O; 46

(I) N=C(N)NCCCNC(=O)c1cc2c(NCCCCN)c3c(c(NCCCCN)c2s1)C(=O)c1ccccc1C3=O
(II) N=C(N)NCCCNC(=O)c1cc2c(NCCOCCN)c3c(c(NCCOCCN)c2s1)C(=O)c1ccccc1C3=O
(III) N=C(N)NCCCNC(=O)c1cc2c(NCCCNC(=N)N)c3c(c(NCCCNC(=N)N)c2o1)C(=O)c1ccccc1C3=O
# sort list by recorded Kb, greatest to least Your reply should list the labels following the order given in the request.
III, I, II

###

Test system: Quadruplex DNA
measurement_protocol: Stabilization of human FAM-5'-d(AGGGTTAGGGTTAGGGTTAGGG)-3'-BHQ1 telomeric G4 quadruplex DNA assessed as binding constant at 1 uM by FRET assay
Type: nucleic-acid assay
quantity_measured: Kb (×10⁶ /M)

N=C(N)NCCCNC(=O)c1cc2c(NCCCNC(=N)N)c3c(c(NCCCNC(=N)N)c2s1)C(=O)c1ccccc1C3=O; 47

(a) N=C(N)NCCCNC(=O)c1cc2c(NCCCCCN)c3c(c(NCCCCCN)c2s1)C(=O)c1ccccc1C3=O
(b) N=C(N)NCCCNC(=O)c1cc2c(NCCCCCN)c3c(c(NCCCCCN)c2o1)C(=O)c1ccccc1C3=O
(c) N=C(N)NCCNc1c2c(c(NCCNC(=N)N)c3sccc13)C(=O)c1ccccc1C2=O
Rank ascending by Kb. Response format: the labels, sorted as the prompt asks.
c, b, a
(c: 6 ×10⁶ /M, b: 22 ×10⁶ /M, a: 38 ×10⁶ /M)

###

measurement_protocol: Selectivity ratio of Kb for human FAM-5'-d(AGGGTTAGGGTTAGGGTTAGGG)-3'-BHQ1 telomeric G4 quadruplex DNA to Kb for d(CAATCGGATCGAATTCGATCCGATTG) DNA (unknown origin)
quantity_measured: Selectivity ratio

(a) N=C(N)NCCCNC(=O)c1cc2c(NCCCCCN)c3c(c(NCCCCCN)c2s1)C(=O)c1ccccc1C3=O
(b) N=C(N)NCCCNC(=O)c1cc2c(NCCNC(=N)N)c3c(c(NCCNC(=N)N)c2s1)C(=O)c1ccccc1C3=O
(c) N=C(N)NCCNc1c2c(c(NCCNC(=N)N)c3sccc13)C(=O)c1ccccc1C2=O
Endpoint returns the given compounds ordered by ascending Selectivity ratio. Put the labels in the requested order and list them out.
c, b, a
